System: T98G
Assay: Induction of apoptosis in human T98G cells assessed as irregularities in cellular shape at 1 uM after 48 hrs by DAPI staining
Format: functional, cell-based
Active and inactive are the calls of the source. The rule behind the calls is not given here.
value-kind: Activity

# compound, value-kind, reported-result
rows = [
    ("CC(=NNC(=S)Nc1ccc(I)cc1)c1ccccn1 (mixture of isomers)", "Activity", "Active"),
    ("CC(=NNC(=S)Nc1ccccc1I)c1ccccn1 (mixture of isomers)", "Activity", "Active"),
    ("CC(=NNC(=S)Nc1cccc(I)c1)c1ccccn1 (mixture of isomers)", "Activity", "Active"),
]

---

Tested on: T98G
Assay: Induction of apoptosis in human T98G cells assessed as irregularities in cellular shape at 1 uM after 48 hrs by DAPI staining
Format: functional, cell-based
Activity calls are given as the source filed them. The rule behind the calls is not given here.
value-kind: Activity

Some solved entries appear below for comparison.
# compound, Activity
data = [
    ("CC(=NNC(S)=Nc1ccccc1Cl)c1ccccn1 (mixture of isomers)", "Active"),
    ("CC(=NNC(=S)Nc1ccccc1[N+](=O)[O-])c1ccccn1 (mixture of isomers)", "Active"),
    ("CC(=NNC(=S)Nc1ccc(F)cc1)c1ccccn1 (mixture of isomers)", "Active"),
    ("CC(=NNC(=S)Nc1cccc([N+](=O)[O-])c1)c1ccccn1 (mixture of isomers)", "Active"),
]

Which Activity value belongs to CC(=NNC(=S)Nc1ccccc1)c1ccccn1 (mixture of isomers) ?
Active

---

System: T98G
Assay: Induction of apoptosis in human T98G cells assessed as cell shrinkage at 1 uM after 48 hrs by DAPI staining
Format: functional, cell-based
Activity calls are given as the source filed them. The calls are words filed in the database; no cut-off is given here.
value-kind: Activity

Completed entries (count: 5):
# compound, target-system, reported-result
data = [
    ("CC(=NNC(=S)Nc1ccc(I)cc1)c1ccccn1 (mixture of isomers)", "T98G", "Active"),
    ("CC(=NNC(=S)Nc1ccccc1[N+](=O)[O-])c1ccccn1 (mixture of isomers)", "T98G", "Active"),
    ("CC(=NNC(S)=Nc1ccccc1Cl)c1ccccn1 (mixture of isomers)", "T98G", "Active"),
    ("CC(=NNC(=S)Nc1cccc([N+](=O)[O-])c1)c1ccccn1 (mixture of isomers)", "T98G", "Active"),
    ("CC(=NNC(=S)Nc1ccccc1F)c1ccccn1 (mixture of isomers)", "T98G", "Active"),
]

Entry under review: CC(=NNC(=S)Nc1ccccc1I)c1ccccn1 (mixture of isomers) . Reported Activity?
Active

Field request: Activity | item: CC(=NNC(=S)Nc1ccc(Cl)cc1)c1ccccn1 (mixture of isomers)
Active

Look at this compound and give its reported Activity. CC(=NNC(=S)Nc1cccc(Cl)c1)c1ccccn1 (mixture of isomers)
Active

Entry under review: CC(=NNC(=S)Nc1ccc(F)cc1)c1ccccn1 (mixture of isomers) . Reported Activity?
Active

---

Tested on: MCF7
Assay: Induction of apoptosis in human MCF7 cells assessed as appearance of autophagolysosomes at 1 uM after 48 hrs by acridine orange/ethidium bromide staining-based microscopy
Format: functional, cell-based
Calls of active or inactive are those of the source. The calls are words filed in the database; no cut-off is given here.
value-kind: Activity

Field: example entries. Status: answers known.
# molecule, reported-result
records = [
    ("CC(=NNC(=S)Nc1ccc(I)cc1)c1ccccn1 (mixture of isomers)", "Active"),
    ("CC(=NNC(=S)Nc1cccc(I)c1)c1ccccn1 (mixture of isomers)", "Active"),
    ("CC(=NNC(=S)Nc1ccccc1I)c1ccccn1 (mixture of isomers)", "Active"),
    ("CC(=NNC(=S)Nc1ccccc1F)c1ccccn1 (mixture of isomers)", "Active"),
    ("CC(=NNC(=S)Nc1ccccc1)c1ccccn1 (mixture of isomers)", "Active"),
    ("CC(=NNC(=S)Nc1ccc(Cl)cc1)c1ccccn1 (mixture of isomers)", "Active"),
]

Need Activity of CC(=NNC(=S)Nc1ccccc1[N+](=O)[O-])c1ccccn1 (mixture of isomers) , thanks.
Active
